Values compiled from patent US12053506B2.

system: methicillin-resistant Staphylococcus aureus (ATCC 33591); details: ATCC 33591, 4 h
No end group written: not given here.
measuredProperty: MBC value (μg/ml) against methicillin-resistant Staphylococcus aureus (µg/mL)

monomersequence="KTMMQSGGTFGTFMAIGMGIR [KU-5878]" unitsymbol=µg/mL operatorsymbol== observedvalue=100
monomersequence="KKMMQSGGTFGTFMAIGMGIR [KU-5878-T59K]" unitsymbol=µg/mL operatorsymbol== observedvalue=45
monomersequence="KRMMQSGGTFGTFMAIGMGIR [KU-5878-T59R]" unitsymbol=µg/mL operatorsymbol== observedvalue=30
monomersequence="KKMMKKGGKFGTFMAIGMGIR [KU-5878-K4]" unitsymbol=µg/mL operatorsymbol== observedvalue=5
monomersequence="KTMMQSGGTFGKFMAIGMGIR [KU-5878-T69K]" unitsymbol=µg/mL operatorsymbol== observedvalue=150
monomersequence="KTMMQSGGKFGTFMAIGMGIR [KU-5878-T66K]" unitsymbol=µg/mL operatorsymbol== observedvalue=70
monomersequence="KTMMQSGGTFGTFMAIGMGIA [KU-5878-R78A]" unitsymbol=µg/mL operatorsymbol=> observedvalue=300
monomersequence="KKMMKKGGTFGTFMAIGMGIR [KU-5878-K3]" unitsymbol=µg/mL operatorsymbol== observedvalue=5
monomersequence="ATMMQSGGTFGTFMAIGMGIR [KU-5878-K58A]" unitsymbol=µg/mL operatorsymbol=> observedvalue=300
monomersequence="KTMMQKGGTFGTFMAIGMGIR [KU-5878-S63K]" unitsymbol=µg/mL operatorsymbol== observedvalue=60
monomersequence="KTMMQSGGTFGTFMAIGMGIK [KU-5878-R78K]" unitsymbol=µg/mL operatorsymbol=> observedvalue=300
monomersequence="KKMMKSGGTFGTFMAIGMGIR [KU-5878-K2]" unitsymbol=µg/mL operatorsymbol== observedvalue=8
monomersequence="RTMMQSGGTFGTFMAIGMGIR [KU-5878-K58R]" unitsymbol=µg/mL operatorsymbol== observedvalue=130
monomersequence="KTMMKSGGTFGTFMAIGMGIR [KU-5878-Q62K]" unitsymbol=µg/mL operatorsymbol== observedvalue=85

---

tested on: Pseudomonas aeruginosa (ATCC 27853); type: cell-based; settings: ATCC 27853, 1 h
No end group written: not given here.
measuredProperty: MBC value (μg/ml) against Pseudomonas aeruginosa (µg/mL)

monomersequence="RTMMQSGGTFGTFMAIGMGIR [KU-5878-K58R]" testsystem="Pseudomonas aeruginosa (ATCC 27853)" operatorsymbol== observedvalue=120
monomersequence="KTMMQSGGTFGTWMAIGMGIR [KU-5878-F70W]" testsystem="Pseudomonas aeruginosa (ATCC 27853)" operatorsymbol== observedvalue=300
monomersequence="CLRIGMRGRELMGGIGKTM [pCM19, reference compound]" testsystem="Pseudomonas aeruginosa (ATCC 27853)" operatorsymbol== observedvalue=300
monomersequence="KTMMQSGGTFGTFMAIGMGGR [KU-5878-I77G]" testsystem="Pseudomonas aeruginosa (ATCC 27853)" operatorsymbol== observedvalue=80
monomersequence="KTMMQSGGTFGTFMAIGMGTR [KU-5878-I77T]" testsystem="Pseudomonas aeruginosa (ATCC 27853)" operatorsymbol=> observedvalue=300
monomersequence="KTMMQSGGTFGKFMAIGMGIR [KU-5878-T69K]" testsystem="Pseudomonas aeruginosa (ATCC 27853)" operatorsymbol== observedvalue=140
monomersequence="ATMMQSGGTFGTFMAIGMGIR [KU-5878-K58A]" testsystem="Pseudomonas aeruginosa (ATCC 27853)" operatorsymbol=> observedvalue=300
monomersequence="KRMMQSGGTFGTFMAIGMGIR [KU-5878-T59R]" testsystem="Pseudomonas aeruginosa (ATCC 27853)" operatorsymbol== observedvalue=30
monomersequence="KKMMKSGGTFGTFMAIGMGIR [KU-5878-K2]" testsystem="Pseudomonas aeruginosa (ATCC 27853)" operatorsymbol== observedvalue=8
monomersequence="KTMMQSGGTFGTFMAIGMGI [KU-5877]" testsystem="Pseudomonas aeruginosa (ATCC 27853)" operatorsymbol=> observedvalue=300
monomersequence="KTMMKSGGTFGTFMAIGMGIR [KU-5878-Q62K]" testsystem="Pseudomonas aeruginosa (ATCC 27853)" operatorsymbol== observedvalue=90
monomersequence="KTMMQSGGTFGTFMAIGMGIK [KU-5878-R78K]" testsystem="Pseudomonas aeruginosa (ATCC 27853)" operatorsymbol=> observedvalue=300
